B1: CPEB3 Ribozyme (parent)
chain: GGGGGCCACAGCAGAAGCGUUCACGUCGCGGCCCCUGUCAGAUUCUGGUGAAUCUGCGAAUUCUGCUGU

# Variants of: B1
# Assay summary: self-cleavage, relative activity (ratio to wild type); higher = more cleavage; co-transcriptional
self-cleavage of 0.2 or higher: True. Under 0.2: False.

{"Mutation": "A15U U62C", "Classification": "True"}
{"Mutation": "G1A U46G", "Classification": "False"}
{"Mutation": "U26A U43C", "Classification": "True"}
{"Mutation": "G1U A42C", "Classification": "False"}
{"Mutation": "C22A C63A", "Classification": "False"}
{"Mutation": "C6G C66A", "Classification": "False"}
{"Mutation": "G48C U49C", "Classification": "True"}
{"Mutation": "C22G", "Classification": "False"}
{"Mutation": "G1A G11A", "Classification": "False"}
{"Mutation": "G25U C63A", "Classification": "False"}
{"Mutation": "C22G G65A", "Classification": "False"}
{"Mutation": "C6U A15G", "Classification": "True"}
{"Mutation": "G50A C54A", "Classification": "True"}
{"Mutation": "G1A A59U", "Classification": "False"}
{"Mutation": "G58C U67A", "Classification": "True"}
{"Mutation": "G19C C54A", "Classification": "False"}
{"Mutation": "A23C C63A", "Classification": "True"}
{"Mutation": "G41A C45U", "Classification": "True"}
{"Mutation": "C12U A23G", "Classification": "True"}
{"Mutation": "G5U C6U", "Classification": "False"}
{"Mutation": "A23C G41U", "Classification": "True"}
{"Mutation": "C18G U69C", "Classification": "True"}
{"Mutation": "C22U U55G", "Classification": "False"}
{"Mutation": "U53A U67G", "Classification": "True"}
{"Mutation": "A42G C66A", "Classification": "True"}
{"Mutation": "C33U C63A", "Classification": "True"}
{"Mutation": "U20A A60C", "Classification": "False"}
{"Mutation": "A13G A40U", "Classification": "True"}
{"Mutation": "C6A G41A", "Classification": "True"}
{"Mutation": "G11U U46A", "Classification": "True"}
{"Mutation": "G56C U62C", "Classification": "True"}
{"Mutation": "C7U A51C", "Classification": "True"}
{"Mutation": "A13G C32G", "Classification": "True"}
{"Mutation": "C57G A60G", "Classification": "True"}
{"Mutation": "G19U G41U", "Classification": "False"}
{"Mutation": "G30U U62C", "Classification": "True"}
{"Mutation": "A13U U61A", "Classification": "True"}
{"Mutation": "G3C C57U", "Classification": "False"}
{"Mutation": "U38G A59G", "Classification": "False"}
{"Mutation": "C33U U38G", "Classification": "True"}
{"Mutation": "A15C G37C", "Classification": "False"}
{"Mutation": "G47A G50U", "Classification": "True"}
{"Mutation": "G14U G58A", "Classification": "True"}
{"Mutation": "G25A C57A", "Classification": "True"}
{"Mutation": "G11U A52G", "Classification": "True"}
{"Mutation": "C12U C66A", "Classification": "True"}
{"Mutation": "G4C G17C", "Classification": "False"}
{"Mutation": "U44C", "Classification": "True"}
{"Mutation": "A52C U62C", "Classification": "True"}
{"Mutation": "A60C G65C", "Classification": "True"}
{"Mutation": "G5U C7U", "Classification": "False"}
{"Mutation": "G1A U49G", "Classification": "False"}
{"Mutation": "A16C A51U", "Classification": "True"}
{"Mutation": "A59C C63A", "Classification": "True"}
{"Mutation": "G31A U49G", "Classification": "True"}
{"Mutation": "U21C G65U", "Classification": "True"}
{"Mutation": "U38A C66G", "Classification": "True"}
{"Mutation": "G47U G58U", "Classification": "True"}
{"Mutation": "G37A C66U", "Classification": "True"}
{"Mutation": "G47C G68C", "Classification": "True"}
{"Mutation": "G1U G11A", "Classification": "False"}
{"Mutation": "A16C G56U", "Classification": "False"}
{"Mutation": "G4C U44G", "Classification": "True"}
{"Mutation": "A60G C66U", "Classification": "True"}
{"Mutation": "A23U C35U", "Classification": "True"}
{"Mutation": "C18G C32A", "Classification": "False"}
{"Mutation": "U44C G68A", "Classification": "True"}
{"Mutation": "G47U A60U", "Classification": "True"}
{"Mutation": "U44C C57U", "Classification": "True"}
{"Mutation": "U38C U64C", "Classification": "True"}
{"Mutation": "G19C U43A", "Classification": "False"}
{"Mutation": "A16G A40C", "Classification": "True"}
{"Mutation": "C22G C29G", "Classification": "True"}
{"Mutation": "A23U C34A", "Classification": "True"}
{"Mutation": "U61G C63G", "Classification": "True"}
{"Mutation": "G17U G28A", "Classification": "False"}
{"Mutation": "G3A C18U", "Classification": "True"}
{"Mutation": "A13C A60G", "Classification": "True"}
{"Mutation": "G48A A51C", "Classification": "True"}
{"Mutation": "G5U U55G", "Classification": "False"}
{"Mutation": "G2U C22U", "Classification": "False"}
{"Mutation": "C45G U46G", "Classification": "True"}
{"Mutation": "C33G A40C", "Classification": "True"}
{"Mutation": "U38G C39A", "Classification": "True"}
{"Mutation": "A40U C45U", "Classification": "True"}
{"Mutation": "U21C G65A", "Classification": "True"}
{"Mutation": "A15G A59U", "Classification": "True"}
{"Mutation": "G2C U49C", "Classification": "False"}
{"Mutation": "C33G G48U", "Classification": "True"}
